test system: UACC-62; test: NCI tumour cell line growth inhibition, 48 h
Active and inactive are the calls of the source. Rule as the data show it: active = GI50 up to about 1.1 µM and inactive = higher.
Select the matching outcome among Yes for active, No for inactive

compound=Oc1cc(Br)cc2cc(Br)cnc12 assigned_class=No
compound="COC1=CC(C)C2C[C@H]3O[C@H](O)C[C@H]4C(C)C(=O)C(O)C([C@@]2(C)C1=O)[C@@]34C (some centres not stated)" assigned_class=No
compound="CC[N+]1(C)CCC(O)(/C=C/c2ccc(OC)cc2)C(C(=O)/C=C/c2ccc(OC)cc2)C1 (configuration not stated)" assigned_class=No
compound="COc1ccc(/N=C(/C[S+]([O-])c2ccc(C)cc2)C(F)(F)F)cc1 (configuration not stated)" assigned_class=No
compound=CCCCC/C(=N\c1[nH]cnc1C(N)=O)OCC assigned_class=No

Outcome? OCC(O)C(O)C(O)c1nn(-c2ccc(Cl)cc2)c2nc3cc(Cl)c(Cl)cc3nc12 (configuration not stated)
No

Outcome? `Oc1ccc(/N=N/c2ccc(Cl)cc2)cc1`
No

Outcome? C=C1C2C[C@@H]3O[C@H]4C[C@H]5O[C@@]6(C[C@@H]7O[C@]8(C[C@H](C)[C@@H]9O[C@@H]%10CC(C=O)O[C@@H]%10C[C@@H]9O8)C[C@H](C)[C@@H]7O6)C[C@H]5O[C@H]4[C@H](C)[C@H]3OC(=O)C[C@H]3CC[C@@H]4OC5[C@H]6O[C@]7(CC[C@H]8CC(=C)[C@H](CC[C@@H](C[C@H]1C)O2)O8)CC6O[C@@H]5[C@@H](O7)[C@H]4O3 (some centres not stated)
Yes

Outcome? C=CCCCC1(C)CCNC1=S (configuration not stated)
No

Outcome? `N#C/C(=C\c1ccc(Br)cc1)c1nc(-c2cc3ccccc3oc2=O)cs1`
No

Outcome? CCN(CC)CC(C(=O)Nc1c(C)cccc1C)/C(C)=N\NC(=S)NN (configuration not stated)
No

Outcome? `O=C1C[C@@H](C(=O)OCc2ccccc2)NC(=O)C[C@@H](C(=O)OCc2ccccc2)NC(=O)C[C@@H](C(=O)OCc2ccccc2)N1`
No

Outcome? `COc1ccc([I+]c2ccc(OC)cc2)cc1`
No

Outcome? `COc1ccc(-c2cc(=O)c3ccccc3o2)cc1N`
No

Outcome? `c1cc2c(cc1NC1=NCCO1)CCC2`
No

---

test system: T47D; test: NCI tumour cell line growth inhibition, 48 h
Calls of active or inactive are those of the source. Rule as the data show it: active = GI50 up to about 1.1 µM and inactive = higher.
Select the matching outcome among T (active), F (inactive)

Below, 4 compounds whose answers are already recorded.
compound=Cc1cccc2nc3cccc(C(=O)NCCC[N+](C)(CCCNC(=O)c4cccc5nc6cccc(C)c6nc45)Cc4ccc([N+](=O)[O-])n4C)c3nc12 assigned_class=F
compound="CCOC(=O)C1(Cc2ccccc2)CCN(C(=O)c2ccccc2)C2C1C2(Cl)Cl (stereo not given)" assigned_class=F
compound="CC(=O)Nc1ccc(/C=C/C(=O)N2CC(CCl)c3c2cc(N)c2ccccc32)cc1 (stereo not given)" assigned_class=T
compound=Nc1ccn(C=C=CCO)c(=O)n1 assigned_class=F

Outcome? `CN1C[C@H]2[C@@H](C1=O)[C@H](c1ccccc1)ON2C`
F

---

test system: EKVX; assay: NCI tumour cell line growth inhibition, 48 h
Calls of active or inactive are those of the source. No stated cut-off is given here; in the data, active = GI50 up to about 1.1 µM and inactive = higher.
Select the matching outcome among active, inactive

compound=CCCC(=O)OC[n+]1ccc2c(C)c3[nH]c4ccc(OC)cc4c3c(C)c2c1 assigned_class=active
compound="COc1cccc2c1C(CO)N1C(C#N)C3CC(C(=O)O)C(C1C2)N3C (stereo not given)" assigned_class=inactive
compound="CC(=O)OC1COC(N2C(=O)C(=O)c3cc(Br)c([N+](=O)[O-])cc32)C(OC(C)=O)C1OC(C)=O (stereo not given)" assigned_class=inactive
compound="CCO/S(=N/S(=O)(=O)c1ccccc1)c1ccccc1[N+](=O)[O-] (stereo not given)" assigned_class=inactive
compound=c1c[nH]c(Cc2nc(Cc3c[nH]cn3)c[nH]2)n1 assigned_class=inactive

Outcome? `O=c1c2c3c(sc2nc2n1N=CN(c1ccc(Cl)cc1)C2)CCCC3`
inactive

Outcome? Cc1ccc2c(C3Cc4ccccc4N3C(=O)/C=C\C(=O)O)c(C)[nH]c2c1 (stereo not given)
inactive

Outcome? `CCCCC/C(=N\c1[nH]cnc1C(N)=O)OCC`
inactive

Outcome? `Nc1n[n+]([O-])c2cc([N+](=O)[O-])ccc2[n+]1[O-]`
inactive

Outcome? CC(C)(C)c1cc(C(C)(C)C)c(SC2OC(CO)C(O)C(O)C2O)c(O)c1O (stereo not given)
inactive

Outcome? `c1ccc(CCCN2C3CCC2CN(CCOC(c2ccccc2)c2ccccc2)C3)cc1`
inactive

Outcome? `CC1=C2C(=C[C@H]3[C@]4(C)CCCC(C)(C)[C@H]4CC[C@]34O[C@H]24)OC1=O`
inactive

Outcome? `COc1cccc2c(Nc3ccc(S(=O)(=O)N=C(N)N)cc3)c3ccc([N+](=O)[O-])cc3nc12`
inactive

Outcome? `CN(C)c1ccc(/C=C/C(=O)c2ccccc2)cc1Br`
inactive

Outcome? `CC(C)(C)c1ccc(Oc2ccc(C#N)c(C#N)c2)c(C(C)(C)C)c1`
inactive
